# Assay System: T1, human ICOS-hFc (homodimeric, bivalent) (human, UniProt Q9Y6W8 21-141)
# T1 construct: also called hICOS-Fc; hICOS-hFc; not shown: human IgG1 Fc (IgG1 backbone)
# T1 sequence: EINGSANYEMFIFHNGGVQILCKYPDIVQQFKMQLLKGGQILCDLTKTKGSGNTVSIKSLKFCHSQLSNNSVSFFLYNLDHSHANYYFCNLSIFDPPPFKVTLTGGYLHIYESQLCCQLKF
# Protocol: BLI (Octet RED96), full-length IgG vs homodimeric ICOS-Fc (avid)
# Protocol: Affinity measurements were conducted using Bio-Layer Interferometry (BLI) technology (ForteBio Octet® RED96). The monovalent affinities were generated with IgG versions of the antibodies with monovalent, heterodimeric forms of the ICOS receptor. The avid affinities were generated using full-length IgGs against homodimeric forms of the ICOS receptor.
Listed next: entries and their corresponding Kd.
Please respond with the number in nM and leave the unit unwritten.

binder="37A10 (antibody, V domains shown, Armenian hamster monoclonal tested as IgG; also called hamster anti-ICOS 37A10) VH: EVQLVESGGGLVKPGGSLKLSCAASGFTFSDYWMDWVRQAPGKGLEWVGNIDEDGSITEYSPFVKGRFTISRDNVKNTLYLQMNSVKSEDTATYYCTRWGRFGFDSWGQGTLVTVSS VL: DIVMTQSPSSLAVSAGDRVTINCKSSQSLLSGSFNYLTWYQQKTGQAPKLLIFYASTRHTGVPDRFMGSGSGTDFTLTINSFQTEDLGDYYCHHHYNAPPTFGPGTKLELR" measurement=0.0342

Query: Indicate its recorded Kd; the binder in question is 7F12 (antibody, V domains shown, Armenian hamster monoclonal tested as IgG; also called hamster anti-ICOS 7F12) VH: EVQLVESGGGLVKPGGSLTLSCAASGFTFSDYWMDWVRQGPGKGLEWVGNIDEDGSTTYYAPFVKGRFTISRDNAKKTLYLQMNSVKSEDTATYYCTRWGRYAFDSWGQGTLVTVSS VL: DIVMTQSPSSLAVSPGDKVTINCKSSQSLLSGNYNYLAWYQQKTGQAPKLLIFYASTRHTGVPDRFMGSGSGTDFSLTINSFQTEDLGDYYCQHHYSTPPTFGPGTKLEIK
Reply: 0.0342
